biological target: rat D2-like receptors (Rattus norvegicus, UniProt P61169); assay: biochemical
Sequence (P61169 1-415 isoform P61169-2): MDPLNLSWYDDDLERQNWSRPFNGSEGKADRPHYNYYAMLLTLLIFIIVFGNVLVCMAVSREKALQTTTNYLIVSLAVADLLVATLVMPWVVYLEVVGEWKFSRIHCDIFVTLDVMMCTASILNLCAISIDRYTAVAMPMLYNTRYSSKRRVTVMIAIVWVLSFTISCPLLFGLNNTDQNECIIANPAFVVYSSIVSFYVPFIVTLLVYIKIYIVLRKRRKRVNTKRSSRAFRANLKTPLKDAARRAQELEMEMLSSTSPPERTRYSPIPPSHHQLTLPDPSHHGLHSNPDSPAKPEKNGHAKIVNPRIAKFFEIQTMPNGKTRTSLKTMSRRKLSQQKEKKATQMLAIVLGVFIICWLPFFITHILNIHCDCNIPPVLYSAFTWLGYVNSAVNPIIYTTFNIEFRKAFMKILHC
measured quantity: pKi
// pKi is dimensionless: -log10 of concentration (M)

Specify reported pKi for the compound shown: CCCN(CC[C@]1(O)C[C@@H](NC(=O)c2ccc3ccccc3c2)C1)[C@H]1C[C@@H]1c1ccccc1Cl (relative stereo) [(±)-12]
6.30

* * *

target: human D3 receptor (Homo sapiens); assay: cell-based; format: cell-based
Sequence (P35462 whole entry): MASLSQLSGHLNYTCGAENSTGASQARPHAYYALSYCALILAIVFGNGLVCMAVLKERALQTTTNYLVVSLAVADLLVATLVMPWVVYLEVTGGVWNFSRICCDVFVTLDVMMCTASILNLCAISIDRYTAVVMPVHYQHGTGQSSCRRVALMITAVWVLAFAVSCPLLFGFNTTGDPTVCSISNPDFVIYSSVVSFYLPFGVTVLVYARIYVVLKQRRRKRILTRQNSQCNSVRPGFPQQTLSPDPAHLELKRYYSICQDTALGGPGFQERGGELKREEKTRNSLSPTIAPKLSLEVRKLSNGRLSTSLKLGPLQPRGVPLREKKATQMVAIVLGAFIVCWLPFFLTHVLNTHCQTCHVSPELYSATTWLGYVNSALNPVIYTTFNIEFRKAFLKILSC
measured quantity: EC50

Look up and report measured EC50 for this entry: CCCN(CC[C@]1(O)C[C@@H](NC(=O)c2ccc3ccccc3c2)C1)[C@@H]1C[C@H]1c1ccc(Cl)cc1
> 100 µM

* * *

target: UniProt:P19020; test: biochemical; format: binding
Sequence (P19020 whole entry): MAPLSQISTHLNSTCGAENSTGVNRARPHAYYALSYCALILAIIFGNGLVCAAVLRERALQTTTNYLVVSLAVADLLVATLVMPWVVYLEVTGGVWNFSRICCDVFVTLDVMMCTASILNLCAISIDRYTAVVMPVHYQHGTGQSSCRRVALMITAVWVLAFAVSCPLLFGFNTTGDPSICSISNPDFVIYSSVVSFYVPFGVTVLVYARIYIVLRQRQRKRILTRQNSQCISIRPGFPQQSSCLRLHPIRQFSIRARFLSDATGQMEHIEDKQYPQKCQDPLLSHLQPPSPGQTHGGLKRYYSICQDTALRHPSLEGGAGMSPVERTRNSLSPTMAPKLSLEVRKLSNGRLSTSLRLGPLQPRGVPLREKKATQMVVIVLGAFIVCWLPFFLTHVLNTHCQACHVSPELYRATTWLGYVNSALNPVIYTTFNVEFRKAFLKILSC
measured quantity: selectivity for rat D3 receptor over rat D2 receptor

Known selectivity for rat D3 receptor over rat D2 receptor results, listed for orientation:
>>> endpoint_value("CCCN[C@@H]1C[C@H]1c1ccccc1")
"approximately 80 fold"
>>> endpoint_value("CCCN(CC[C@]1(O)C[C@@H](NC(=O)c2ccc3ccccc3c2)C1)[C@H]1C[C@@H]1c1cccc(Cl)c1 (relative stereo) [(±)-13]")
"> 10000"
>>> endpoint_value("CCCN[C@H]1C[C@@H]1c1ccccc1")
"approximately 80 fold"
>>> endpoint_value("CCCN(CC[C@]1(O)C[C@@H](NC(=O)c2ccc3ccccc3c2)C1)[C@H]1C[C@@H]1c1ccccc1")
"20–30 fold"

// moving on: another record for selectivity for rat D3 receptor over rat D2 receptor
Give selectivity for rat D3 receptor over rat D2 receptor for CCCN(CC[C@]1(O)C[C@@H](NC(=O)c2ccc3ccccc3c2)C1)[C@@H]1C[C@H]1c1ccccc1
20–30 fold

Origin of the recorded values: paper PMC4216217
